# Test system: human erythrocytes
# method: Hemolytic activity assay
# Type: cell-based
# testSettings: 64 μM; human RBC in PB, 37°C, 1 h; OD420; total lysis control 0.1% SDS; three technical replicates
Where a SMILES comes first, the peptide text is derived from it. [ ]: non-standard residue; d: D form. hArg = N=C(N)NCCCC[C@H](N)C(=O)O; 2Thi = N[C@@H](Cc1cccs1)C(=O)O; Dab = NCC[C@H](N)C(=O)O; Dap = NC[C@H](N)C(=O)O
Record form. Attribute: Hemolysis rate (%). Fill in for each entry.
Answers are plain numbers, in %.

| compound | target | valueUnit | Hemolysis rate (%) |
| --- | --- | --- | --- |
| CC(C)C[C@H](NC(=O)[C@H](Cc1ccc(O)cc1)NC(=O)[C@H](CCCCN)NC(=O)[C@H](CC(C)C)NC(=O)[C@H](CC(C)C)NC(=O)[C@H](CCCCN)NC(=O)[C@H](CCCCN)NC(=O)[C@H](Cc1ccccc1)NC(=O)[C@H](CC(C)C)NC(=O)[C@H](CCCNC(=N)N)NC(=O)[C@@H](N)CCCCNC(=N)N)C(=O)N[C@@H](CCCNC(=N)N)C(=O)N[C@@H](CCCCN)C(=O)N[C@@H](Cc1cccs1)C(N)=O [UP10] (H-[hArg]RLFKKLLKYLRK[2Thi]-NH2) | human erythrocytes | % | 56.82 |

Enquiry: What value of Hemolysis rate (%) has been reported for the following compound? CC(C)C[C@H](NC(=O)[C@H](Cc1ccc(O)cc1)NC(=O)[C@H](CCN)NC(=O)[C@H](CC(C)C)NC(=O)[C@H](CC(C)C)NC(=O)[C@H](CN)NC(=O)[C@H](CN)NC(=O)[C@H](Cc1ccccc1)NC(=O)[C@H](CC(C)C)NC(=O)[C@H](CCCCNC(=N)N)NC(=O)[C@@H](N)CN)C(=O)N[C@@H](CCCCNC(=N)N)C(=O)N[C@@H](CCN)C(=O)N[C@@H](Cc1cccs1)C(N)=O [UP11] (H-[Dap][hArg]LF[Dap][Dap]LL[Dab]YL[hArg][Dab][2Thi]-NH2)
Return: 95.65

###

# System: human erythrocytes
# method: Hemolytic activity assay
# Type: cell-based
# testSettings: 128 μM; human RBC in PB, 37°C, 1 h; OD420; total lysis control 0.1% SDS; three technical replicates
Marks after values point to notes of the source that are not given here. Where a SMILES comes first, the peptide text is derived from it. [ ]: non-standard residue; d: D form. hArg = N=C(N)NCCCC[C@H](N)C(=O)O; 2Thi = N[C@@H](Cc1cccs1)C(=O)O; Dab = NCC[C@H](N)C(=O)O; Dap = NC[C@H](N)C(=O)O
parameterMeasured: Hemolysis rate (%)

| compound | parameterMeasured | observed |
| --- | --- | --- |
| CC(C)C[C@H](NC(=O)[C@H](Cc1ccc(O)cc1)NC(=O)[C@H](CCCCN)NC(=O)[C@H](CC(C)C)NC(=O)[C@H](CC(C)C)NC(=O)[C@H](CCCCN)NC(=O)[C@H](CCCCN)NC(=O)[C@H](Cc1cccs1)NC(=O)[C@H](CC(C)C)NC(=O)[C@H](CCCNC(=N)N)NC(=O)[C@@H](N)CCCCN)C(=O)N[C@@H](CCCNC(=N)N)C(=O)N[C@@H](CCCCN)C(=O)N[C@@H](Cc1cccs1)C(N)=O [UP07] (H-KRL[2Thi]KKLLKYLRK[2Thi]-NH2) | Hemolysis rate (%) | 30.10 ± 2.61 % |
| CC(C)C[C@H](NC(=O)[C@H](Cc1ccc(O)cc1)NC(=O)[C@H](CCN)NC(=O)[C@H](CC(C)C)NC(=O)[C@H](CC(C)C)NC(=O)[C@H](CN)NC(=O)[C@H](CN)NC(=O)[C@H](Cc1ccccc1)NC(=O)[C@H](CC(C)C)NC(=O)[C@H](CCCCNC(=N)N)NC(=O)[C@@H](N)CN)C(=O)N[C@@H](CCCCNC(=N)N)C(=O)N[C@@H](CCN)C(=O)N[C@@H](Cc1cccs1)C(N)=O [UP11] (H-[Dap][hArg]LF[Dap][Dap]LL[Dab]YL[hArg][Dab][2Thi]-NH2) | Hemolysis rate (%) | ∼100.00* % |
| CC(C)C[C@H](NC(=O)[C@H](Cc1ccc(O)cc1)NC(=O)[C@H](CCCCN)NC(=O)[C@H](CC(C)C)NC(=O)[C@H](CC(C)C)NC(=O)[C@@H](CCCCN)NC(=O)[C@@H](CCCCN)NC(=O)[C@H](Cc1ccccc1)NC(=O)[C@H](CC(C)C)NC(=O)[C@H](CCCNC(=N)N)NC(=O)[C@@H](N)CCCCN)C(=O)N[C@@H](CCCNC(=N)N)C(=O)N[C@H](CCCCN)C(=O)N[C@@H](Cc1ccccc1)C(N)=O [DP04] (H-KRLF[dK][dK]LLKYLR[dK]F-NH2) | Hemolysis rate (%) | 58.26 ± 1.84% |
| CC(C)C[C@H](NC(=O)[C@H](Cc1ccc(O)cc1)NC(=O)[C@H](CCN)NC(=O)[C@H](CC(C)C)NC(=O)[C@H](CC(C)C)NC(=O)[C@H](CCN)NC(=O)[C@H](CCN)NC(=O)[C@H](Cc1ccccc1)NC(=O)[C@H](CC(C)C)NC(=O)[C@H](CCCCNC(=N)N)NC(=O)[C@@H](N)CCN)C(=O)N[C@@H](CCCNC(=N)N)C(=O)N[C@@H](CCN)C(=O)N[C@@H](Cc1ccccc1)C(N)=O [UP12] (H-[Dab][hArg]LF[Dab][Dab]LL[Dab]YLR[Dab]F-NH2) | Hemolysis rate (%) | ∼100.00* % |

###

# System: human erythrocytes
# method: Hemolytic activity assay
# Type: cell-based
# testSettings: 64 μM; human RBC in PB, 37°C, 1 h; OD420; total lysis control 0.1% SDS; three technical replicates
Where a SMILES comes first, the peptide text is derived from it. [ ]: non-standard residue; d: D form. hArg = N=C(N)NCCCC[C@H](N)C(=O)O; 2Thi = N[C@@H](Cc1cccs1)C(=O)O; Dab = NCC[C@H](N)C(=O)O; Dap = NC[C@H](N)C(=O)O
Record form. Attribute: Hemolysis rate (%). Fill in for each entry.
Numbers only, in %.

| compound | target | Hemolysis rate (%) |
| --- | --- | --- |
| CC(C)C[C@H](NC(=O)[C@H](Cc1ccc(O)cc1)NC(=O)[C@H](CCCCN)NC(=O)[C@H](CC(C)C)NC(=O)[C@H](CC(C)C)NC(=O)[C@H](CCCCN)NC(=O)[C@H](CCCCN)NC(=O)[C@H](Cc1cccs1)NC(=O)[C@H](CC(C)C)NC(=O)[C@H](CCCNC(=N)N)NC(=O)[C@@H](N)CCCCN)C(=O)N[C@@H](CCCNC(=N)N)C(=O)N[C@@H](CCCCN)C(=O)N[C@@H](Cc1cccs1)C(N)=O [UP07] (H-KRL[2Thi]KKLLKYLRK[2Thi]-NH2) | human erythrocytes | 18.23 |

Enquiry: What value of Hemolysis rate (%) has been reported for the following compound? CC(C)C[C@H](NC(=O)[C@H](Cc1ccc(O)cc1)NC(=O)[C@H](CCN)NC(=O)[C@H](CC(C)C)NC(=O)[C@H](CC(C)C)NC(=O)[C@H](CN)NC(=O)[C@H](CN)NC(=O)[C@H](Cc1ccccc1)NC(=O)[C@H](CC(C)C)NC(=O)[C@H](CCCCNC(=N)N)NC(=O)[C@@H](N)CN)C(=O)N[C@@H](CCCCNC(=N)N)C(=O)N[C@@H](CCN)C(=O)N[C@@H](Cc1ccccc1)C(N)=O [UP14] (H-[Dap][hArg]LF[Dap][Dap]LL[Dab]YL[hArg][Dab]F-NH2)
Return: 66.51

###

Record form. Attribute: remaining at 24 h, 0.1 mg/mL. Fill in for each entry.
# Tested on: human plasma proteases
# method: in vitro
Where a SMILES comes first, the peptide text is derived from it. [ ]: non-standard residue; d: D form. 2Thi = N[C@@H](Cc1cccs1)C(=O)O; Aib = CC(C)(N)C(=O)O

| molecule | remaining at 24 h, 0.1 mg/mL |
| --- | --- |
| CC(C)C[C@H](NC(=O)[C@H](Cc1ccc(O)cc1)NC(=O)[C@H](CCCCN)NC(=O)[C@H](CC(C)C)NC(=O)[C@H](CC(C)C)NC(=O)[C@H](CCCCN)NC(=O)[C@H](CCCCN)NC(=O)[C@H](Cc1ccccc1)NC(=O)[C@H](CC(C)C)NC(=O)[C@H](CCCNC(=N)N)NC(=O)C(C)(C)N)C(=O)N[C@@H](CCCNC(=N)N)C(=O)N[C@@H](CCCCN)C(=O)N[C@@H](Cc1cccs1)C(N)=O [UP09] (H-[Aib]RLFKKLLKYLRK[2Thi]-NH2; N-terminus assumed) | > 30% |

Now turn to the next molecule.
Enquiry: What value of remaining at 24 h, 0.1 mg/mL has been reported for the following molecule? CC(C)C[C@H](NC(=O)[C@H](CC(C)C)NC(=O)[C@@H](CCCCN)NC(=O)[C@@H](CCCCN)NC(=O)[C@H](Cc1ccccc1)NC(=O)[C@H](CC(C)C)NC(=O)[C@@H](CCCNC(=N)N)NC(=O)[C@H](N)CCCCN)C(=O)N[C@H](CCCCN)C(=O)N[C@@H](Cc1ccc(O)cc1)C(=O)N[C@@H](CC(C)C)C(=O)N[C@H](CCCNC(=N)N)C(=O)N[C@H](CCCCN)C(=O)N[C@@H](Cc1ccccc1)C(N)=O [DP06] (H-[dK][dR]LF[dK][dK]LL[dK]YL[dR][dK]F-NH2)
Return: > 60%
